target_of_assay: human RORγ-LBD (Homo sapiens, UniProt P51449)
Construct: made in house; host or cells: E. coli (BL-21)
Sequence (P51449 262-518): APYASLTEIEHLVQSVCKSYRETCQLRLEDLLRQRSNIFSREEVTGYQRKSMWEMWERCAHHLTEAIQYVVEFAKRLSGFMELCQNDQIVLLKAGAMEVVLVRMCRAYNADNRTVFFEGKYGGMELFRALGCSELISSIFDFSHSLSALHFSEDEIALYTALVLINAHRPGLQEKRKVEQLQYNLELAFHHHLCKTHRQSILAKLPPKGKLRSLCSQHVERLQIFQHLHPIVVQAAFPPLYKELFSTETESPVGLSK
experiment_summary: ROR gamma coactivator peptide recruitment Alphascreen assay (RORγ-LBD binding to GRIP1 coactivator peptide)
Format: biochemical
test_settings: 5 nM human RORγ-LBD, 30 nM 7-β-hydroxycholesterol, 50 nM biotinylated GRIP1 coactivator peptide, overnight incubation at room temperature; read-out: result (pIC50, RORγ coactivator peptide recruitment Alphascreen assay) (converted)
Hi! Could you tag entries with IC50 below 10 nM as y, and those at or above as n? Much appreciated.

{"compound": "Cc1cc(Cl)c(C(=O)CN(C(=O)c2cnn([C@H]3CC[C@](C)(C(=O)O)CC3)c2C(F)(F)F)[C@H]2C[C@@H]3[C@H](C2)C3(C)C)c(Cl)n1 [Example 714]", "class_name": "y"}
{"compound": "CC(C)(C)CN(CC(=O)c1c(Cl)cnc(Cl)c1Cl)C(=O)c1cnn([C@H]2CC[C@](C)(C(=O)O)CC2)c1C(F)(F)F [Example 697]", "class_name": "n"}
{"compound": "CC1(CN(CC(=O)c2c(Cl)cc(F)cc2Cl)C(=O)c2cnn([C@H]3CC[C@](C)(C(=O)O)CC3)c2C(F)(F)F)CCCCC1 [Example 696]", "class_name": "y"}
{"compound": "O=C(c1cnn([C@H]2CC[C@H](C(=O)O)CC2)c1C(F)(F)F)N(CCc1ccc(Cl)cc1Cl)Cc1ccc(Cl)cc1 [Example 504]", "class_name": "y"}
{"compound": "Cc1cc(Cl)c(C(=O)CN(CC(C)(C)C)C(=O)c2cnn([C@H]3CC[C@H](CC(=O)O)CC3)c2C(F)(F)F)c(Cl)n1 [Example 740]", "class_name": "n"}
{"compound": "O=C(CN(C(=O)c1cnn([C@H]2CC[C@@H](C(=O)O)CC2)c1C(F)(F)F)C1CC2(CCC2)C1)c1c(Cl)cccc1Cl [Example 613]", "class_name": "n"}
